# System: MCF7
# Assay protocol: Cytotoxicity against human MCF7 cells at 100 uM after 72 hrs by MTT assay
# Type: functional
# Condition set: MCF7, 72 h
Note to self: values exactly at 20% are yes (1). So inhibition at 100 µM at or above 20% is yes (1), below is no (0).

INSERT INTO results (compound, assigned_class) VALUES
  ('CCC(CO)N1C(=O)[C@H]2CN(Cc3ccccc3)C[C@H]2C1=O (stereo partly specified)', 'no (0)'),
  ('NCC[C@@H](C(=O)O)N1C(=O)[C@H]2CNC[C@H]2C1=O', 'no (0)'),
  ('NCCCC[C@@H](C(=O)O)N1C(=O)[C@H]2COC[C@H]2C1=O', 'yes (1)'),
  ('CC(CO)N1C(=O)[C@H]2COC[C@H]2C1=O (stereo partly specified)', 'no (0)'),
  ('CCC(CO)N1C(=O)[C@H]2CNC[C@H]2C1=O (stereo partly specified)', 'no (0)');

Prompt: I'd appreciate it if you could say whether `O=C(O)C[C@@H](C(=O)O)N1C(=O)[C@H]2COC[C@H]2C1=O` has inhibition at 100 µM at least equal to 20%.
Response: no (0)

Prompt: Follow-up entry: `CCOC(=O)C[C@@H](C(=O)OCC)N1C(=O)[C@H]2COC[C@H]2C1=O`
Response: no (0)

Prompt: Follow-up entry: `O=C(O)[C@H](Cc1c[nH]cn1)N1C(=O)[C@H]2CNC[C@H]2C1=O`
Response: no (0)

Prompt: Follow-up entry: `O=C1[C@H]2COC[C@H]2C(=O)N1CCN1CCOCC1`
Response: no (0)

Prompt: Follow-up entry: `O=C1[C@H]2CN(Cc3ccccc3)C[C@H]2C(=O)N1CCN1CCOCC1`
Response: yes (1)
